assay_text: Toxicity in Zebra fish AB embryo assessed as mortality rate at 1.25 to 5 uM measured after 24 hrs
Design: species or system Danio rerio
condition: zebrafish, dose 1.25-5 µM
readout: mortality at 24 h, up to 5 µM (%)
State the answer as a number, implicitly in %.

Q: Look up mortality at 24 h, up to 5 µM for this compound: CC1=C(O)C(=O)C=C2C1=CC=C1[C@@]2(C)CC[C@@]2(C)[C@@H]3C[C@](C)(C(=O)O)CC[C@]3(C)CC[C@]12C
A: 100

---

assay_text: Selectivity index, ratio of IC50 for cytotoxicity against human MCF-10A cells to IC50 for antiproliferative activity against human MDA-MB-231 cells
Format: toxicity, cell-based
condition: MCF-10A cells versus MDA-MB-231 cells, read-out: Ratio IC50
readout: selectivity ratio
// no unit, no text: just the number

Q: Look up selectivity ratio for this molecule: CCN(CC)CCCNC(=O)c1cc2cc(Nc3nccc(-c4sc(NC)nc4C)n3)ccc2[nH]1
A: 120

---

assay_text: Selectivity index, ratio of IC50 for cytotoxicity against human MCF-10A cells to IC50 for antiproliferative activity against human T47D cells
Type: toxicity, cell-based
condition: MCF-10A cells versus T47D cells, read-out: Ratio IC50
readout: selectivity ratio
// no unit, no text: just the number

Q: Look up selectivity ratio for this compound: CCN(CC)CCCNC(=O)c1cc2cc(Nc3nccc(-c4sc(NC)nc4C)n3)ccc2[nH]1
A: 45.7

---

target_system: Nuclear receptor subfamily 4immunitygroup A member 1 (Homo sapiens)
Sequence (P22736 whole entry, the tested form may be a part): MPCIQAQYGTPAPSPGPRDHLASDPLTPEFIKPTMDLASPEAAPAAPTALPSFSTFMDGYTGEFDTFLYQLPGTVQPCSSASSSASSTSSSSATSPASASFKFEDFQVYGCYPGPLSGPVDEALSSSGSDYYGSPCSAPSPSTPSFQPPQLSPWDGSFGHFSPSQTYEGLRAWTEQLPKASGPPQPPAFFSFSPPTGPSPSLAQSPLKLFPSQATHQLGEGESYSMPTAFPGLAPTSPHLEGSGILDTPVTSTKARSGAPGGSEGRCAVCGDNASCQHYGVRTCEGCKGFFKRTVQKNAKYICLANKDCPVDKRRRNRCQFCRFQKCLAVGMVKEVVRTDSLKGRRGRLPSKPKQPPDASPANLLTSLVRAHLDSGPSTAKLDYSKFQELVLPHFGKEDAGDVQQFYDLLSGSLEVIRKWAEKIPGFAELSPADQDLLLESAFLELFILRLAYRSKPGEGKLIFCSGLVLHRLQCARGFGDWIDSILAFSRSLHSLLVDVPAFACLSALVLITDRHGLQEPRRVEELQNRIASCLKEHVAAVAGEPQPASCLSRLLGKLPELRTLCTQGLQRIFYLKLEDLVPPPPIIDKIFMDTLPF
assay_text: Binding affinity to His-tagged Nur77 ligand binding domain (unknown origin) by surface plasmon resonance assay
readout: pKd
Scale: pKd equals -log10([C]), with [C] in mol/L.

Q: Look up pKd for this compound: CN(C)CCCNC(=O)c1cc2ccc(Nc3nccc(-c4cccnc4)n3)cc2[nH]1
A: 6.45

Q: Entry CCN(CC)CCCNC(=O)c1cc2cc(Nc3nccc(-c4sc(NC)nc4C)n3)ccc2[nH]1 please
A: 7.04

Q: Entry O=C(N/N=C/c1ccncc1)c1ccc(Nc2ccnc3ccccc23)cc1 please
A: 5.93
